TESTED_SYSTEM: human Oxytocin (OTR) receptor (Homo sapiens)
Construct: expressed in transfected cells
Sequence (P30559 1-389): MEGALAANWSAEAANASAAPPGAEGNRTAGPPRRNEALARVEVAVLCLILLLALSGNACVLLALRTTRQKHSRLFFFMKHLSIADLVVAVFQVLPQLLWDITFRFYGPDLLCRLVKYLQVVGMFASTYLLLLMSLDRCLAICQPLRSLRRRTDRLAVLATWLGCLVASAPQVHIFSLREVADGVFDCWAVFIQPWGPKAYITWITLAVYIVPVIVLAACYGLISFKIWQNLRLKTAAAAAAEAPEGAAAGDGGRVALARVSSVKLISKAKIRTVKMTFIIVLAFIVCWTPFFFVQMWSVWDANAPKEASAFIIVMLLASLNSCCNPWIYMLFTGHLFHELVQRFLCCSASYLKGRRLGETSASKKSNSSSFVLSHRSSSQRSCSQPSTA
METHOD_SUMMARY: Calcium flux assay (FLIPR) in CHO cells expressing human OTR
Format: cell-based
CONDITION_PARAMETERS: CHO; maximum response normalized to endogenous full agonist = 100%; read-out: hOT efficacy
Where a SMILES comes first, the peptide text is derived from it.
Collected Emax values appear next to each entry.
# value in %; strip the unit string

[
  {
    "COMPOUND": "CCC[C@H](NC(=O)CN(C)C(=O)[C@@H]1CCS(=O)(=O)CCC(=O)N[C@@H](Cc2ccc(O)cc2)C(=O)N[C@@H]([C@@H](C)CC)C(=O)N[C@@H](CCC(N)=O)C(=O)N[C@@H](CC(N)=O)C(=O)N1)C(=O)NCC(N)=O [Example 14] (HELM PEPTIDE1{Y.I.Q.N.[O=C([C@H](CCS(=O)(=O)CCC(=O)[*:3])N[*:1])[*:2]].[Sar].[Nva].G.[am]}$PEPTIDE1,PEPTIDE1,1:R1-5:R3$$$V2.0; C-terminus assumed; bridges inferred)",
    "TESTED_SYSTEM": "human Oxytocin (OTR) receptor (Homo sapiens)",
    "RECORDED_RESULT": 117
  }
]

Lab note: need Emax with human Oxytocin (OTR) receptor (Homo sapiens) for entry CCCC[C@H](NC(=O)CN(C)C(=O)[C@@H]1CCS(=O)(=O)CCC(=O)N[C@@H](Cc2ccc(O)cc2)C(=O)N[C@@H]([C@@H](C)CC)C(=O)N[C@@H](CCC(N)=O)C(=O)N[C@@H](CC(N)=O)C(=O)N1)C(=O)NCC(N)=O [Example 9] (HELM PEPTIDE1{Y.I.Q.N.[O=C([C@H](CCS(=O)(=O)CCC(=O)[*:3])N[*:1])[*:2]].[Sar].[Nle].G.[am]}$PEPTIDE1,PEPTIDE1,1:R1-5:R3$$$V2.0) , please look it up.
104

Try CC[C@H](C)[C@@H]1NC(=O)[C@H](Cc2ccc(O)cc2)NC(=O)CCS(=O)(=O)CC[C@@H](C(=O)N2CC(F)(F)C[C@H]2C(=O)N[C@@H](CC(C)C)C(=O)NCC(N)=O)NC(=O)[C@H](CC(N)=O)NC(=O)[C@H](CCC(N)=O)NC1=O [Example 3] (HELM PEPTIDE1{Y.I.Q.N.[O=C([C@H](CCS(=O)(=O)CCC(=O)[*:3])N[*:1])[*:2]].[O=C([C@@H]1CC(F)(F)CN1[*:1])[*:2]].L.G.[am]}$PEPTIDE1,PEPTIDE1,1:R1-5:R3$$$V2.0) next.
144
